Numbers sourced from paper PMC12388126.

Biological target: butyrylcholinesterase (BChE) (Equus caballus)
Construct: BChE (extracted from equine serum); purchased Sigma-Aldrich; host or cells: equine serum (natural source)
Sequence (P81908 whole entry): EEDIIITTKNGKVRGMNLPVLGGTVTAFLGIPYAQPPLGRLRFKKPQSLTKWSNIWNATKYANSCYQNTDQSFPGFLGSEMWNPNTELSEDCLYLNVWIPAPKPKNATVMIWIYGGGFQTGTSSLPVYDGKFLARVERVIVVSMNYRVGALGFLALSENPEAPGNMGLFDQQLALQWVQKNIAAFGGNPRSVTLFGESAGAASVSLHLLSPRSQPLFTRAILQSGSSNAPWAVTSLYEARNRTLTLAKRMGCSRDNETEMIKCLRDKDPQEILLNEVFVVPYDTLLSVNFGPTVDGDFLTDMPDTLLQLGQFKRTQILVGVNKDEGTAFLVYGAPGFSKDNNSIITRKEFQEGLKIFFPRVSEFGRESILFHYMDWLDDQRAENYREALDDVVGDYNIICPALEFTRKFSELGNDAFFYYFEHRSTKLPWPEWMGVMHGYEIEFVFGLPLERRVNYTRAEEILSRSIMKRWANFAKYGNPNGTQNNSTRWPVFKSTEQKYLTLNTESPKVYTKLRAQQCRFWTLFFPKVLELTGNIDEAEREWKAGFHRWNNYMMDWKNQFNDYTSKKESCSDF
Experiment: BChE inhibition, modified Ellman method
Format: biochemical
Conditions: read-out: BChE Inhibition (%)
Description: Building on the previously promising in vitro results of thienobenzo-1,2,3-triazolinium salts against cholinesterases, research was extended to a series of structurally related bromide salts. […] Their inhibitory activity was assessed using a modified Ellman method over a wide concentration range (0.01–250 μM). […] DTNB, ATChI, and BTChI were prepared in 50 mM Tris buffer (pH 8.0), while the enzymes were made in 20 mM Tris buffer (pH 7.5). […] After four minutes, the absorbance was measured at 405 nm. […]
QUANTITY_KIND: inhibition at 25 µM (%)
// return numeric value only (unit: %, not printed)

Reported inhibition at 25 µM of Cc1cccc(Cn2n[n+](Cc3ccccc3)c3ccc4sccc4c32)c1 [Compound 1] : 83.9

Sample Cc1ccc(Cn2n[n+](Cc3ccc(C)cc3)c3ccc4sccc4c32)cc1 [Compound 9] ; inhibition at 25 µM observed: 76.6

Measured inhibition at 25 µM, Cc1ccc(Cn2n[n+](Cc3ccc([N+](=O)[O-])cc3)c3ccc4sccc4c32)cc1 [Compound 11] : 81.1

Please fill in: inhibition at 25 µM reported for Cc1ccc(Cn2n[n+](Cc3ccc(Cl)cc3)c3ccc4sccc4c32)cc1 [Compound 10] = 79.9

Entry under test: CC=Cn1n[n+](Cc2ccccc2)c2ccc3sccc3c21 [Compound 14] . Its inhibition at 25 µM was 80.4

Measured inhibition at 25 µM of Clc1cccc(Cn2n[n+](Cc3ccc(I)cc3)c3ccc4sccc4c32)c1 [Compound 4] : 83.2
